These measurements were taken from ChEMBL document CHEMBL1629691.

# protocol: Ratio of drug level in alveolar cell to plasma of lung transplant recipient invasive aspergillosis patient at 150 mg, iv QD for 4 consecutive days measured after 3 hrs post last dose
# Assay type: ADME, organism-based, Pneumocyte
# condition.parameters: human, alveolar cells / plasma
Numbered stars: 1 amine (or outer) side, 2 acyl side, 3 side chain; on linkers, the order of the positions; unused ones are H or OH. Bridge positions count the residues as written; N and C are the ends. Square brackets hold non-standard residues; d marks the D form. Peptide text beside a SMILES is read from it. * marks the point of attachment. hTyr(3S-OH,4S-OH,3'-OSO3H) = N[C@H](C(=O)O)[C@H](O)[C@@H](O)c1ccc(O)c(OS(=O)(=O)O)c1; Orn(4R-OH,5R-OH) = O=C([C@H](C[C@@H](O)[C@@H](O)N[*:3])N[*:1])[*:2]; Pro(3S-OH,4S-Me) = C[C@H]1CN[C@H](C(=O)O)[C@H]1O; X1 = CCCCCOc1ccc(-c2cc(-c3ccc(C(=O)*)cc3)no2)cc1; Gln(3R-OH) = NC(=O)C[C@@H](O)[C@H](N)C(=O)O; Hyp = O=C(O)[C@@H]1C[C@@H](O)CN1
quantity: Kp at 3 h
Reply: number alone, nothing else.

I would be grateful if you could share the reported Kp at 3 h for CCCCCOc1ccc(-c2cc(-c3ccc(C(=O)N[C@H]4C[C@@H](O)[C@@H](O)NC(=O)[C@@H]5[C@@H](O)[C@@H](C)CN5C(=O)[C@H]([C@H](O)CC(N)=O)NC(=O)[C@H]([C@H](O)[C@@H](O)c5ccc(O)c(OS(=O)(=O)O)c5)NC(=O)[C@@H]5C[C@@H](O)CN5C(=O)[C@H]([C@@H](C)O)NC4=O)cc3)no2)cc1 [MICAFUNGIN] (X1-[Orn(4R-OH,5R-OH)]T[Hyp][hTyr(3S-OH,4S-OH,3'-OSO3H)][Gln(3R-OH)][Pro(3S-OH,4S-Me)]; lactam 1-C) .
1.53

====

# protocol: Drug level in epithelial lining fluid of lung transplant recipient invasive aspergillosis patient at 150 mg, iv QD for 4 consecutive days measured after 3 hrs post last dose by HPLC
# Assay type: ADME, organism-based
# condition.parameters: human, read-out: Drug uptake
Numbered stars: 1 amine (or outer) side, 2 acyl side, 3 side chain; on linkers, the order of the positions; unused ones are H or OH. Bridge positions count the residues as written; N and C are the ends. Square brackets hold non-standard residues; d marks the D form. Peptide text beside a SMILES is read from it. * marks the point of attachment. hTyr(3S-OH,4S-OH,3'-OSO3H) = N[C@H](C(=O)O)[C@H](O)[C@@H](O)c1ccc(O)c(OS(=O)(=O)O)c1; Orn(4R-OH,5R-OH) = O=C([C@H](C[C@@H](O)[C@@H](O)N[*:3])N[*:1])[*:2]; Pro(3S-OH,4S-Me) = C[C@H]1CN[C@H](C(=O)O)[C@H]1O; X1 = CCCCCOc1ccc(-c2cc(-c3ccc(C(=O)*)cc3)no2)cc1; Gln(3R-OH) = NC(=O)C[C@@H](O)[C@H](N)C(=O)O; Hyp = O=C(O)[C@@H]1C[C@@H](O)CN1
quantity: concentration at 3 h (ng/mL)
All answers are understood in ng/mL, so give the number only.

// concentration at 3 h lookup, key: CCCCCOc1ccc(-c2cc(-c3ccc(C(=O)N[C@H]4C[C@@H](O)[C@@H](O)NC(=O)[C@@H]5[C@@H](O)[C@@H](C)CN5C(=O)[C@H]([C@H](O)CC(N)=O)NC(=O)[C@H]([C@H](O)[C@@H](O)c5ccc(O)c(OS(=O)(=O)O)c5)NC(=O)[C@@H]5C[C@@H](O)CN5C(=O)[C@H]([C@@H](C)O)NC4=O)cc3)no2)cc1 [MICAFUNGIN] (X1-[Orn(4R-OH,5R-OH)]T[Hyp][hTyr(3S-OH,4S-OH,3'-OSO3H)][Gln(3R-OH)][Pro(3S-OH,4S-Me)]; lactam 1-C)
40
